Measured parameter: melting point

Sample records with melting point:
>>> assay_result("O=S(=O)(CCl)Nc1ccnn1-c1c(Cl)cc(C(F)(F)F)cc1Cl")
"63 to 66 °C"
>>> assay_result("CCCCCCC(O)CNCCCCCCNCC(O)CCCCCC (centres undefined)")
"124 to 127 °C"
>>> assay_result("CC(C)N(C)c1ncc([N+](=O)[O-])cc1Cl")
"56 to 57 °C"
>>> assay_result("CON=C(C#N)C(=O)NC(=O)NCCCCCC(=O)OC")
"91 °C"
>>> assay_result("NS(=O)(=O)c1cccc(CCO)c1")
"109 °C"
>>> assay_result("COc1cc(C)c2c(c1)[C@@H]1c3ccccc3N[C@@H]1C2 (relative stereo)")
"104 °C"

Per the record, "CCCCc1nn2c(-c3ccccc3)cnc2n1Cc1ccc(-c2ccccc2-c2nnn[nH]2)cc1" has melting point of > 70 °C

Record "Cc1cc(=O)n(C2CCCCC2)n1C" , field melting point: 99 to 100 °C

Quick note, melting point for CCC(CN1CCCCC1)C(=O)c1cc(-c2ccccc2)no1 (centres undefined) landed at 83 to 84 °C

====

# key: entry, value: melting point

Solved cases below.
>>> assay_result("CC(C)(c1ccccc1)N1CC(O)=C(c2ccccc2)C1=O")
"206 to 208 °C"
>>> assay_result("CC(=O)Nc1ncc(Sc2ccc(NS(C)(=O)=O)cc2)s1")
"236 to 239 °C"
>>> assay_result("CCCCCCC#Cc1csc(/C=C/C(=O)O)c1")
"81 °C"
>>> assay_result("COc1cc(Nc2nccc(-c3ccc(N4CCN(CCCN5C(=O)c6ccccc6C5=O)CC4)nc3)n2)cc(OC)c1OC")
"105 to 106 °C"
>>> assay_result("O=C(O)c1ccccc1NCCNc1ccccc1F")
"127 to 128 °C"

compound "O=C(Nc1ccc(Oc2ccccc2)cc1)N1CCN(c2ncnc3ccc(Br)cc23)CC1" , melting point observed: 169 to 170 °C

Sample "Cc1ccc(C2(Cl)c3ccccc3C(=O)c3ccccc32)cc1" ; melting point observed: 136 to 140 °C

Lab book: melting point of CC(C)=CC(C#N)NC(=O)c1cc(C)nn1C (stereo not given) noted as 92.5 to 94 °C

Sure, the documented melting point for "Cc1cc(F)ccc1NC(=O)CCC#Cc1ccccn1" is 110 to 114 °C

melting point reading for O=C(OCc1ccccc1)C1Cc2ccsc2CN1Cc1ccccc1 (stereo not given) : 135 to 140 °C

====

Measured parameter: melting point

See these solved cases before continuing.
>>> assay_result("COc1c(Cl)cc(C(=O)O)c2cccc(S(=O)(=O)N(C)C)c12")
"127 to 137 °C"
>>> assay_result("NC(=O)c1ccnc(CCCCCCOCCCCCCBr)c1")
"73 to 75 °C"

So, COC(=O)CCn1c(=O)n2n(c1=O)C(C(=O)O)C=CC2 (stereo not drawn) ? Its melting point was 150 to 153 °C

====

Overview of recorded melting point for various compounds

See these solved cases before continuing.
>>> assay_result("Cc1ccc2c(c1)C(O)(c1ccc3c(c1)OCO3)C(=O)N2Cc1ccc(Cl)cc1 (stereo not given)")
"122 to 124 °C"
>>> assay_result("NS(=O)(=O)c1ccc(S(=O)(=O)CCCO)c([N+](=O)[O-])c1")
"168 to 170 °C"
>>> assay_result("CCCC1C(O)=CC(=O)N1c1ccc(C#N)c(Cl)c1 (stereo not given)")
"156 to 158 °C"
>>> assay_result("Cc1cccc2sc(-n3nc(CCC(=O)N(C)O)cc3-c3ccsc3)nc12")
"142 to 143 °C"

Please look at the following compound next.
So, "CCn1ncc2c3onc(-c4cccc(F)c4)c3cnc21" ? Its melting point was 136 to 137 °C

====

melting point by entry:

>>> assay_result("C#CCOC(=O)N1c2ccccc2C(=O)Nc2cccnc21")
"213 °C"
>>> assay_result("Cc1ccc2cc(-c3ccc4c(c3)C(C)(C)CCC4(C)C)ccc2c1")
"173 to 175 °C"

Notebook: OC(COCc1cccnc1)c1ccc2occc2c1 (stereo not given) , melting point read as 85 to 86 °C

Value of measured melting point for the entry "CSc1ccc(C(N)=O)c([N+](=O)[O-])c1" : 176 to 178 °C

====

Reported values of melting point for individual entries

>>> assay_result("OCc1cc(-c2nnc3c4ccccc4c(OCc4ccccn4)nn23)no1")
"129 to 131 °C"
>>> assay_result("CC1(O)c2ccccc2-c2[nH]nc(-c3ccccc3)c21 (configuration not stated)")
"154 to 155 °C"
>>> assay_result("COC(=O)c1ccc(-c2nc3[nH]c4ccccc4c3c(=O)[nH]2)cc1")
"> 250 °C"

Consider the record given below.
Reported melting point ( CP(=O)(O)CC1CC(Cl)=NO1 (configuration not stated) ) = 116 °C

====

Reported values of melting point for individual entries

// worked examples, melting point included
>>> assay_result("CC1(C)C(=O)Nc2ccc(-c3ccc([N+](=O)[O-])s3)cc21")
"223 to 225 °C"
>>> assay_result("COc1cc2c3ccc(OC)c(OC)c3n(Cc3ccc(Br)cc3)c2cc1OC")
"143 to 144 °C"
>>> assay_result("CC(C)c1nc(C(C)C)c(CSc2ccc(O)cc2)c(-c2ccc(F)cc2)c1CO")
"178 to 179 °C"
>>> assay_result("O=C1CC2c3ccccc3CCN2C2CCCC12 (stereo not given)")
"101 to 102 °C"
>>> assay_result("CCOc1cc2nc(S(=O)c3ccccc3-c3ccccn3)[nH]c2cc1OCC (stereo not given)")
"194 to 195 °C"

Data point: "Cc1noc(NS(=O)(=O)c2ccccc2)c1Cl" ; melting point = 140 to 143 °C

Record "Fc1ccc(-c2ncn(C3CCNCC3)c2-c2ccnc(Oc3cccc(F)c3)n2)cc1" , field melting point: 155 to 156 °C

melting point for "O=C(NCCO)c1cccc(-c2cccc3cc(Cc4cccc(F)c4)oc23)c1" is 159 to 160 °C

====

Measured parameter: melting point

Answered examples (5):
>>> assay_result("CCCCCCCCCCCCCCOc1ccc(C(=O)OC)cc1OCCCCCCCCCCCCCC")
"50 to 51 °C"
>>> assay_result("COC(=O)c1ccc2c(c1)-c1c(c(C(=O)C(C#N)C(=O)Nc3ccccc3)nn1-c1ccccc1)CS2 (stereo unspecified)")
"228 to 230 °C"
>>> assay_result("OC1Cn2cccc2Sc2ccccc21 (stereo unspecified)")
"101 to 102 °C"
>>> assay_result("CN(C)CCNC(=O)c1ccc(-c2ccc3nnn(Cc4ccc5ncccc5c4)c3n2)cc1")
"122 to 125 °C"
>>> assay_result("Cc1cc(-c2nc3cccnn3c2-c2ccnc(NC(=O)c3ccncc3)c2)ccc1F")
"219 to 220 °C"

GET /value?item= "CSC(=Nc1nc(C)cc(C)n1)NS(=O)(=O)c1ccccc1-c1ccccc1" &field=melting point returns 154 to 157 °C

====

melting point by entry:

Solved entries:
>>> assay_result("COc1ccc(-c2cnc(C=NN3CC(=O)NC3=O)o2)cc1")
"291 to 294 °C"
>>> assay_result("COC(=O)Cc1c(O)ncnc1O")
"> 200 °C"
>>> assay_result("O=C(CN1C(=O)C2(COc3cc4c(cc32)CCO4)c2c(Br)cccc21)Nc1ccccc1F (configuration not stated)")
"245 to 246 °C"
>>> assay_result("COc1cc2c(cc1OC)CN(CCc1cccc(NC(=O)c3cccc4c(=O)c5cccc(F)c5[nH]c34)c1)CC2")
"178 °C"
>>> assay_result("CCOC(=O)C(C#N)=Cc1c(Cl)n(Cc2cccc(Cl)c2)c2ccccc12")
"130 to 132 °C"
>>> assay_result("CN(C)Cc1nc(C(N)=O)nn1-c1ccc(Cl)cc1C(=O)c1ccccc1Cl")
"177 to 180 °C"

Now examine the next entry.
Given item "Cc1cnc2c(NC(=O)c3c(Cl)cccc3Cl)cccc2c1Cl" , the value recorded as its melting point is 216 to 227 °C

====

Listed here are compounds together with their documented melting point.

Sample answers from the record:
>>> assay_result("CC(=O)c1ccc(-c2ccc(F)cc2F)c(Cl)c1")
"63 to 64 °C"
>>> assay_result("Cc1cc(C#N)sc1-c1ccc2c(c1)C(C)(C)OC(C)N2 (configuration not stated)")
"145 to 146 °C"
>>> assay_result("COC(=O)c1cn2ccsc2n1")
"153 to 156 °C"
>>> assay_result("CSC(NCCSCc1[nH]cnc1C)=C(C#N)C(N)=O")
"137 to 139 °C"
>>> assay_result("CNc1cc(N2CCC(c3ccccc3)CC2)nc(C)n1")
"186 to 188 °C"
>>> assay_result("CC1=CC(C)(N)NC=C1 (configuration not stated)")
"79.5 to 81 °C"
>>> assay_result("CC(=O)OC(C)c1cc2c(s1)C(=O)c1c(C(C)OC(C)=O)csc1C2=O (configuration not stated)")
"180 to 182 °C"
>>> assay_result("C=CCONC(=O)c1nc(-c2ccc(C)cc2)cc(N)c1Cl")
"177 to 179 °C"

The reported value for "CCc1cc(CCCOc2c(C)cc(C#N)cc2C)on1" in terms of melting point is 50 to 51 °C

According to the records, this compound "O=c1ccn(-c2cccc(C(F)(F)F)c2)nc1-c1ccsc1-c1ccccc1" displays melting point of 167 to 168 °C
